Molecular target: TRIM25 PRY/SPRY (UniProt Q14258 439-630)
Sequence (Q14258 439-630): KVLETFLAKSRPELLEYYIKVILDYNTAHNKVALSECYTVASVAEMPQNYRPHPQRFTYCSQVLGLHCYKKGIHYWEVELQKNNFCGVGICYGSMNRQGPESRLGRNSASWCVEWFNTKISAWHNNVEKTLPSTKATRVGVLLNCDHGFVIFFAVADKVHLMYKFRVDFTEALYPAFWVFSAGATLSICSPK
Assay: ITC; ITC and filter binding: 20 mM MES pH 6.5, 75 mM NaCl, 0.5 mM TCEP (ITC 20 C, filter binding on ice); NMR: 20 mM Na phosphate pH 6.5, 150 mM NaCl, 2 mM TCEP, 293 K
Settings: protein: recombinant; tags: His-Trx (removed); single strand
measurement kind: pKd
Scale: negative log10 of molar concentration, which is what pKd denotes.

IN: Give me measured pKd, please, for this binder: UAAAAGGAGAU (ssRNA) [pre-let-7 loop]
OUT: 4.38

Recorded values, source paper doi:10.1101/2020.05.04.070177.
